Assay: RP, Waters ACQUITY UPLC BEH C18, 100 × 2.1 mm, 1.7 µm, 65 °C, 0.4 mL/min, estimated dead time 0.55 min; A: water + 0.1% formic acid, pH 3; B: 80% acetonitrile + 20% acetone + 0.1% formic acid, pH 3; gradient (min/%B) 0/0 5/100 5.5/0 6/0
Details: stereoisomer not certain
Counter-ions that a name gives are not always drawn.
Recorded Metric: LC retention time (min)

| Compound | Recorded Metric | Experimental Result |
| --- | --- | --- |
| O=c1c(O)c(-c2ccc(O)cc2)oc2cc(O)cc(O)c12 | LC retention time | 3.02 |
| COc1cc(C(C)=O)ccc1O [4'-Hydroxy-3'methoxyacetophenone] | LC retention time | 2.18 |
| O=C(O)c1cc(O)c(O)c(O)c1 | LC retention time | 1.5 |
| Cc1ccc(OS(=O)(=O)O)cc1 [p-Cresol sulfate] | LC retention time | 1.99 |
| NCCc1c[nH]c2ccccc12 | LC retention time | 1.51 |
| O=C1CCCCN1 | LC retention time | 1.37 |
| Cc1ccc(OC2OC(C(=O)O)C(O)C(O)C2O)cc1 (stereo not given) [p-Cresol glucuronide] | LC retention time | 2.01 |
| COc1cccc(OC)c1O | LC retention time | 2.36 |
| O=C(O)c1ccc2ccccc2n1 | LC retention time | 1.68 |
| CC(C)C1NC(=O)C2CCCN2C1=O (stereo not given) | LC retention time | 1.88 |

====

Assay: RP, Agilent InfinityLab Poroshell 120 EC-C18, 100 × 3 mm, 2.7 µm, 25 °C, 0.4 mL/min, estimated dead time 1.1 min; A: water + 0.1% formic acid, pH 3; B: acetonitrile + 0.1% formic acid, pH 3; gradient (min/%B) 0/5 10/25 20/40 24/90 25/90 26/5 30/5
Conditions: stereoisomer not certain
In this section we review reported LC retention time values for a set of compounds.

| Compound | LC retention time (min) |
| --- | --- |
| O=c1oc2cc(O)ccc2c2c(O)c(O)c(O)cc12 [Urolithin M6] | 9.62 |
| O=c1cc(-c2ccc(O)c(O)c2)oc2cc(O)cc(O)c12 [Luteolin] | 17.1 |
| O=S(=O)(O)Oc1c(O)cccc1O [Pyrogallol 2-O-sulfate] | 3.99 |
| O=C(O)C1OC(Oc2cc(O)c3c(=O)c(-c4ccc(O)cc4)coc3c2)C(O)C(O)C1O (configuration not stated) [Genistein 7-O-glucuronide] | 9.6 |
| O=c1c(O)c(-c2ccc(O)c(O)c2)oc2cc(O)cc(O)c12 [Quercetin] | 14.1 |
| COc1c(O)cc(C(=O)O)cc1OS(=O)(=O)O [4-O-methylgallic acid 3-O-sulfate] | 3.61 |
| COc1ccc(C(=O)O)cc1OC [Veratric acid] | 9.51 |
| O=C(O)C1OC(Oc2ccc(-c3coc4cc(O)cc(O)c4c3=O)cc2)C(O)C(O)C1O (configuration not stated) [Genistein 4'-O-glucuronide] | 10.7 |
| Oc1cc(O)c2c(c1)OC1(c3ccc(O)c(O)c3)Oc3cc(O)c4c(c3C2C1O)OC(c1ccc(O)c(O)c1)C(O)C4 (configuration not stated) [Procyanidin A2] | 9.7 |
| COc1cc(C=CC(=O)O)cc(OC)c1O [Sinapic acid] | 9.78 |
| O=C1CC(c2ccc(O)c(O)c2)Oc2cc(O)cc(O)c21 (configuration not stated) [Eriodictyol] | 13.7 |
| O=c1c(-c2ccc(O)cc2)coc2cc(O)cc(O)c12 [Genistein] | 16.5 |
| O=S(=O)(O)Oc1ccc(C=Cc2cc(O)cc(O)c2)cc1 [Resveratrol 4'-sulfate] | 10 |
| CC1OC(OC2C(O)C(OCCc3ccc(O)c(O)c3)OC(CO)C2OC(=O)C=Cc2ccc(O)c(O)c2)C(O)C(O)C1O (configuration not stated) [Verbascoside] | 10.2 |
| COc1cc(C=CC(=O)CC(=O)C=Cc2ccc(O)c(OC)c2)ccc1O [Curcumin] | 22.9 |
| O=S(=O)(O)Oc1ccccc1O [Catechol O-sulfate] | 4.22 |
| O=C(O)c1c(O)cccc1O [2,6-Dihydroxybenzoic acid] | 6.49 |
